Molecular target: T1, HLA-B8 (B*0801) (human)
T1 construct: MHC class I molecule on mild-acid-stripped EBV-transformed B cells (Vavy)
Experiment: cellular competition binding assay on acid-stripped B-LCL Vavy, flow cytometry; competitor Fl-labeled reference peptide FLRGRAC(Fl)GL
pIC50: −log10 of the molar value.
measured quantity: pIC50

pIC50 recorded for this binder, YLHARLREL [PRAME 462-470 YLHARLREL] , is > 6.00
